Where these numbers come from: ChEMBL document CHEMBL1149451

Below, each of the molecules is paired with its reported residual activity value.
molecular target: Cyclin-dependent kinase 2/cyclin E (Homo sapiens) (UniProt P24864+P24941+O96020); assay: Inhibition of human CDK2/cycE expressed in Sf9 cells at 100 uM; values are per cent of control
Note: unit % is implicit; provide only the numeric part.

Below: 5 molecules and their reported residual activity.
{"smiles.string": "O=C1NC(=O)C(c2c[nH]c3ccccc23)=C1c1ccccc1", "units.of.measure": "%", "residual activity": 76}
{"smiles.string": "O=C1NC(=O)C(c2c[nH]c3ccccc23)=C1c1cccc2ccccc12", "units.of.measure": "%", "residual activity": 19}
{"smiles.string": "COc1cc(C2=C(c3cn(C)c4ccccc34)C(=O)NC2=O)cc(OC)c1OC", "units.of.measure": "%", "residual activity": 24}
{"smiles.string": "COc1ccc(C2=C(c3cc(OC)c(OC)c(OC)c3)C(=O)NC2=O)cc1O", "units.of.measure": "%", "residual activity": 84}
{"smiles.string": "COc1ccc2[nH]cc(C3=C(c4cc(OC)c(OC)c(OC)c4)C(=O)NC3=O)c2c1", "units.of.measure": "%", "residual activity": 93}

// below: residual activity requested for another molecule
Q: Record request: residual activity value, item O=C1NC(=O)C(c2ccccc2)=C1c1ccccc1
Result: 93
